Molecular target: recombinant human ERK5 (Homo sapiens)
Construct: Catalytically active kinase domain of recombinant human ERK5 enzyme was purchased from Carna Biosciences; purchased Carna Biosciences
Sequence (Q13164 55-347 limits assumed): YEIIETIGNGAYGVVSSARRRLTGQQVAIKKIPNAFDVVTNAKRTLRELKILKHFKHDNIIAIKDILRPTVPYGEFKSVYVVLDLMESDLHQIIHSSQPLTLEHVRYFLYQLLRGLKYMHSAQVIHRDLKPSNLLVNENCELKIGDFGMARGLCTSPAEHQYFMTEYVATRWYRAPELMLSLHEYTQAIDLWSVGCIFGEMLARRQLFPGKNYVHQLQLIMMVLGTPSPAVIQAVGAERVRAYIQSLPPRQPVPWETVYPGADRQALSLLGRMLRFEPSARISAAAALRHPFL
Assay: TR-FRET (LANCE Ultra) biochemical assay of ERK5 kinase activity
Conditions: TR-FRET enzymatic assay, phosphorylated ERK5; read-out: ERK5 IC50
metric_name: pIC50
pIC50 is a log-scale quantity: -log10 of the concentration expressed in molar.

>>> df
                            molecule_smiles  numeric_result
0  Cc1ncc(-c2nc(Nc3ccc(C(=O)NCCN4CCCCC4)cc3)ncc2F)n1C(C)C            7.38

The recorded pIC50 for Cc1cc(Nc2nc(N)nn2C(=O)NC(C)C)ccc1Cl is 5.64
